Reference source for all entries: ChEMBL document CHEMBL1156583

Molecular target: UniProt P08684
Sequence (P08684 whole entry): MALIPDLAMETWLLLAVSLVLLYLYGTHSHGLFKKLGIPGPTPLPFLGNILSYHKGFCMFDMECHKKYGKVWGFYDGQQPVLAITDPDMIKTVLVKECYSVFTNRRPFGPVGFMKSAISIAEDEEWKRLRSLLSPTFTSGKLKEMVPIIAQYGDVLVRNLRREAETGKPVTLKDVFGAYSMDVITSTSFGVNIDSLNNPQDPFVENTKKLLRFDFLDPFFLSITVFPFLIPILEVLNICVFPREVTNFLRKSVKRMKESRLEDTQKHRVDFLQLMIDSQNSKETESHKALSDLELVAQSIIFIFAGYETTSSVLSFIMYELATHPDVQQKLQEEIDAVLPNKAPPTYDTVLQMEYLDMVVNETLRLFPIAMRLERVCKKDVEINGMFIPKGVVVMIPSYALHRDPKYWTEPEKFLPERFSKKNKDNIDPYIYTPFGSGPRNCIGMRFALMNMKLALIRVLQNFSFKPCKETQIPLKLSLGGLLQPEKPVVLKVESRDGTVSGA
Experiment: Inhibition of recombinant CYP3A4 by microtiter plate-based fluorimetric assay
Listed here are compounds together with their documented pIC50.
// pIC50 here means minus log10 of the molar concentration (mol/L)

{"columns": ["compoundStructure", "valueMeasured"],
 "data": [
  ["N[C@@H](Cn1c(=O)c(-c2cccc(OCCCCC(=O)O)c2F)cn(Cc2c(F)cccc2C(F)(F)F)c1=O)c1ccccc1", 4.44],
  ["Cc1c(-c2cccc(OCCCCC(=O)O)c2)c(=O)n(C[C@H](N)c2ccccc2)c(=O)n1Cc1c(F)cccc1C(F)(F)F", 4.66],
  ["CN[C@@H](Cn1c(=O)c(-c2cccc(OCCCCC(=O)O)c2F)c(C)n(Cc2c(F)cccc2C(F)(F)F)c1=O)c1ccccc1", 4.89]
]}

Reported pIC50 of CN[C@@H](Cn1c(=O)c(-c2cccc(OCCOCC(=O)O)c2F)c(C)n(Cc2c(F)cccc2C(F)(F)F)c1=O)c1ccccc1 : 5.00

The reported pIC50 of the compound CN[C@@H](Cn1c(=O)c(-c2cccc(OCCCNCC(=O)O)c2F)c(C)n(Cc2c(F)cccc2C(F)(F)F)c1=O)c1ccccc1 was 4.48

Reported pIC50 for CN[C@@H](Cn1c(=O)c(-c2cccc(OCCCOCC(=O)O)c2F)c(C)n(Cc2c(F)cccc2C(F)(F)F)c1=O)c1ccccc1 was 4.66

The value of pIC50 measured for the compound N[C@@H](Cn1c(=O)c(-c2cccc(OCCCCCC(=O)O)c2F)cn(Cc2c(F)cccc2C(F)(F)F)c1=O)c1ccccc1 turned out to be 4.60
